Species on record: Rattus norvegicus
Test: Compound was tested for inhibition of glucose transport in rat adipocyte

| smiles_input | Ki, mM |
| --- | --- |
| CC(=O)O[C@@H]1[C@@H](O)[C@H](O)[C@@H](CO)O[C@@H]1O | 8.5 |

* * *

Species on record: Homo sapiens
Assay: Compound was testd for inhibition of glucose transport human erythrocytes using [H]-forskolin as radioligand
Format: functional, organism-based

| compound | EC50 [nM] |
| --- | --- |
| C=C[C@@]1(C)CC(=O)[C@]2(O)[C@@]3(C)[C@@H](O)CCC(C)(C)[C@@H]3[C@H](O)[C@H](OC(C)=O)[C@@]2(C)O1 [COLFORSIN] | 240 |
